Where do the numbers come from? From patent US20230219986A1.

experimental target: Ba/F3 De119/T790M/C797S EGFR triple mutant cell line (Homo sapiens, UniProt P00533, T790M/C797S, cells depend on it, form not given)
Sequence (P00533 with tags, fused parts or gaps DEL746-750/T790M/C797S, form open): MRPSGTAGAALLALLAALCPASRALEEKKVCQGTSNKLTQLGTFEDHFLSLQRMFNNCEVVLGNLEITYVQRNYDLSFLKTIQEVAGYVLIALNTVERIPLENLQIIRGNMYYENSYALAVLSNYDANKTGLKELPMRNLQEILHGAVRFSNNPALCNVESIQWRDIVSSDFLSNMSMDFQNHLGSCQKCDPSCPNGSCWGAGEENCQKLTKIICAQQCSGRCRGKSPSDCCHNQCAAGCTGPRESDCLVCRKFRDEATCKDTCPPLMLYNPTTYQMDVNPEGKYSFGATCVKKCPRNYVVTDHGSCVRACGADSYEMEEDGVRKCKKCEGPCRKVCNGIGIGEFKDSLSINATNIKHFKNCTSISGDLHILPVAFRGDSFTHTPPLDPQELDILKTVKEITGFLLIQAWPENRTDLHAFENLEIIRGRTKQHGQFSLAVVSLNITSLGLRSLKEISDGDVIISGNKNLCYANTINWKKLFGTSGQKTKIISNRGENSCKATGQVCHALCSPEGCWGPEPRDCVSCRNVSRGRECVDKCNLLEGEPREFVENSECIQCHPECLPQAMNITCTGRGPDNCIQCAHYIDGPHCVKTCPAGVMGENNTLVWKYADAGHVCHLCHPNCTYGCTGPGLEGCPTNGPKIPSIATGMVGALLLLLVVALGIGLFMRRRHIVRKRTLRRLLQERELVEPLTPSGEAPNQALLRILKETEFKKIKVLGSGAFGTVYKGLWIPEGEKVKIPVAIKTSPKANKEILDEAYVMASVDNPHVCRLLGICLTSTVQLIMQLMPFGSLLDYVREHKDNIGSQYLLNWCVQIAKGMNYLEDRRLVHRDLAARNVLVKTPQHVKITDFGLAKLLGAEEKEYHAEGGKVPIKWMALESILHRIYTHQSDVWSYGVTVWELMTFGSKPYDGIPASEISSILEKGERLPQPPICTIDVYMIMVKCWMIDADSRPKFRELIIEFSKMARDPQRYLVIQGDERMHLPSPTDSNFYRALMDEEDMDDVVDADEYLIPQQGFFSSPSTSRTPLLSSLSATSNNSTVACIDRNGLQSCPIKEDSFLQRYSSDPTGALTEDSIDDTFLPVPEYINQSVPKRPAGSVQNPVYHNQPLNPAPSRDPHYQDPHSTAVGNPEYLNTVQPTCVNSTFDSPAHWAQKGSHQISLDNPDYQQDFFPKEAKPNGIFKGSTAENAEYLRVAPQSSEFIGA
assay remarks: Cell proliferation inhibition experiment (CellTiter-Glo), Ba/F3 De119/T790M/C797S
Format: cell-based
measurement setup: Ba/F3 Del19/T790M/C797S EGFR triple mutant cells, 72 hours, Cell Titer-Glo; read-out: Ba/F3 (Del19/T790M/C797S) IC50
Procedure: 3) 30 nL of gradient diluted compound was transferred into the 384-well experimental plate using Echo 550 (Labcyte) at a DMSO final concentration of 0.1%, and the culture plate was incubated in a cell incubator for 72 hours (37° C., 5% CO2). 4) 30 μL of Cell Titer-Glo reagent was added to each well and left for 30 minutes at room temperature and protected from light. 5) Envision microplate reader (PerkinElmer) detected chemiluminescence signals. […]
Kindly state GI50 for each of the entries shown.
Form entry: value (nM) — number only.

Which measured GI50 value corresponds to COc1cc(N2CCN(C(C)C)C(CF)C2)c(-c2cnn(C)c2)cc1Nc1ncc(Br)c(Nc2ccc3nccnc3c2P(C)(C)=O)n1 (stereo not drawn) [compound 164] ?
3.22

Try this molecule next: COc1cc(N2CCOCC2)c(-c2cnn(C)c2)cc1Nc1ncc(C(F)(F)F)c(Nc2ccc3nccnc3c2P(C)(C)=O)n1 [compound 25]
2.41

Try this molecule next: CN1CCC2(CC1)CCN(c1ccc(Nc3ncc(Br)c(Nc4ccc5nccnc5c4P(C)(C)=O)n3)cc1-c1cnn(C)c1)CC2 [compound 76]
5.4
